Cited source for all entries: the supplement of paper PMC8728848

target-desc: Gal(b1-4)GlcNAc(b1-3)Gal(b1-4)GlcNAc(b1-3)Gal(b1-4)GlcNAc(b1-3)Gal(b1-4)GlcNAc(b1-3)Gal(b1-4)GlcNAc(b1-3)Gal(b1-4)GlcNAc(b1-2)Man(a1-3)[Gal(b1-4)GlcNAc(b1-3)Gal(b1-4)GlcNAc(b1-3)Gal(b1-4)GlcNAc(b1-3)Gal(b1-4)GlcNAc(b1-3)Gal(b1-4)GlcNAc(b1-3)Gal(b1-4)GlcNAc(b1-2)Man(a1-6)]Man(b1-4)GlcNAc(b1-4)GlcNAc
method: glycan array binding signal (z-score within array); higher = stronger binding
run-conditions: glycan notation: IUPAC condensed, linker removed
The sample as a whole holds a higher share of the strongest signals than the screen did.

# binder, glycan array binding signal (z-score)
measured = [
    ("AAL (Agrocybe aegerita), Q6WY08 (protein) MQGVNIYNISAGTSVDLAAPVTTGDIVTFFSSALNLNAGAGNPNNTTLNLFAENGAYLLHIAFRLQENVIIFNSRQPDGPWLVEQRVSDVANQFAGIDGKAMVTVFDHGDKYQVVINEKTVIQYTKQISGLTLSLSYNATEETSIFSTVVEAVTYTGLALEHHHHHH", -0.099),
    ("SP15308C-bot-338-23-338 (Bacteroides ovatus) (protein) DEWTDEQFKQLISFKTQPGGWGVTDVHVRYANSAKYTYNLPVLVSGSTDNTDDRLVSFSLRDDTLDILNFEKFGNRPELYFRELPQKYYSFPKELTIPAGQSHALLPIEFSLDGLDDSQKWALPLKVCEDANGTYAVNPRKYYRTAVLRPILFNEFSGRFSGSSLLGTMAGESDIKFSSTEIKLNVVTDSIVFFYAGQRTEDYEDRINYKVFLQFTGDKVDSKKDLYKMKIWAENEKLKFNSYSTPTYKVSSEMDATKTYLKHTYIVISDIDFDFVDYTSVPNYEIEYNMKGGLSVSRDLDTRKPDEDQGSDSKWW", 0.957),
    ("XTP3-B-MRH1 (Homo sapiens), Q96DZ1 (protein) LLEPLFKQSSCSYRIESYWTYEVCHGKHIRQYHEEKETGQKINIHEYYLGNMLAKNLLFEKEREAEEKEKSNEIPTKNIEGQMTPYYPVGMGNGTPCSLKQNRPRSSTVMYICHPESKHEILSVAEVTTCEYEVVILTPLLCSHPKYRFRA", 0.082),
]
